Recorded % binding by the algae by entry
- Tested on: Coccomyxa actinabiotis
- ASSAY_EXPLANATION: Transported decontamination of storage pool water, 24 h contact
- Type: cell-based
- EXPERIMENTAL_CONTEXT: 50 ml water, 9×10^8 cells (140 mg fresh mass)
Form entry: value (%) — number only.

Worked cases, % binding by the algae given:
[60Co] [^60Co]	72
[110Ag] [^110mAg]	100
[137Cs] [^137Cs]	100
[U] [^238U]	95

% binding by the algae recorded for this molecule, [Mn] [^54Mn] , is 100
